Reference source: the supplement of paper PMC6555819

# Tested on: PPARg DBDmut:RXRa IVT, anti-PPARg (DBD mutation: PPARg1 K132A/R137A, NR concentration 270 nM, RXRa partner concentration 90 nM)
# assay.details: PBM binding z-score (relative to random genomic background probes); higher = stronger binding; sequences stand for … in GC…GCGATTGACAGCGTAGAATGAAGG
Quick reference: PBM binding z-score of the listed items.
parameter.measured: PBM binding z-score

biopolymer.sequence: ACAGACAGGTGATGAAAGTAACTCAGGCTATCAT
parameter.measured: PBM binding z-score
result: 0.648

biopolymer.sequence: CAAACGAGGGCATGAGTTGATAGCAAATGCCGAT
parameter.measured: PBM binding z-score
result: 0.524

biopolymer.sequence: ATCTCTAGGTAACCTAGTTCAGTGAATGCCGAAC
parameter.measured: PBM binding z-score
result: 1.92

biopolymer.sequence: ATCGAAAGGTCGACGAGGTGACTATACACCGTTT
parameter.measured: PBM binding z-score
result: 1.08

biopolymer.sequence: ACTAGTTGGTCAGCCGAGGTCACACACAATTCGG
parameter.measured: PBM binding z-score
result: 0.481

biopolymer.sequence: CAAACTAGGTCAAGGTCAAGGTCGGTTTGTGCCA
parameter.measured: PBM binding z-score
result: 2.59

biopolymer.sequence: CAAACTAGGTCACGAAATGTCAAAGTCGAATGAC
parameter.measured: PBM binding z-score
result: 6.88

biopolymer.sequence: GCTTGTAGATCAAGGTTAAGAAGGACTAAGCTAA
parameter.measured: PBM binding z-score
result: -0.676

biopolymer.sequence: CATACAGCGTCAGCTAGGCCAGAGTAGGGACGGC
parameter.measured: PBM binding z-score
result: -0.28

biopolymer.sequence: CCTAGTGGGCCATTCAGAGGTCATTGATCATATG
parameter.measured: PBM binding z-score
result: 1.45

biopolymer.sequence: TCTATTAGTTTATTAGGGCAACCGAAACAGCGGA
parameter.measured: PBM binding z-score
result: 2.16

biopolymer.sequence: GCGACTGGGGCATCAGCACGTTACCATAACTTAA
parameter.measured: PBM binding z-score
result: 0.00267

biopolymer.sequence: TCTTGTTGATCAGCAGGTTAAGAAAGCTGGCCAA
parameter.measured: PBM binding z-score
result: -0.302

biopolymer.sequence: ATACCAAGGTGCTCGTGAGGTCGTTGATACTAAC
parameter.measured: PBM binding z-score
result: 0.246

biopolymer.sequence: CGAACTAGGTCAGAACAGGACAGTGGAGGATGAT
parameter.measured: PBM binding z-score
result: 1.32

biopolymer.sequence: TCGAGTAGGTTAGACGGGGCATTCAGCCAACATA
parameter.measured: PBM binding z-score
result: -0.111

biopolymer.sequence: CCTACTGGGCCACGAAAGGTCATTTATTCAGTGA
parameter.measured: PBM binding z-score
result: -0.2

biopolymer.sequence: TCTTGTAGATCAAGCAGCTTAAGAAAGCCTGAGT
parameter.measured: PBM binding z-score
result: -0.268

biopolymer.sequence: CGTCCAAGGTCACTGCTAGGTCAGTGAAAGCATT
parameter.measured: PBM binding z-score
result: -0.128

biopolymer.sequence: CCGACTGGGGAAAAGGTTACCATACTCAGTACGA
parameter.measured: PBM binding z-score
result: -0.258

biopolymer.sequence: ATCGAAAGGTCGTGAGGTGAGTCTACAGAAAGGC
parameter.measured: PBM binding z-score
result: 0.998

biopolymer.sequence: CCTTACGGGTGACTGACAGGTTATAGCATTTGGA
parameter.measured: PBM binding z-score
result: 0.0764

biopolymer.sequence: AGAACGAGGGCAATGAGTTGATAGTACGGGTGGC
parameter.measured: PBM binding z-score
result: -0.466

biopolymer.sequence: TATACAGGGTCAAAGGCCAGAGCACGAATGTCGA
parameter.measured: PBM binding z-score
result: 1.39

biopolymer.sequence: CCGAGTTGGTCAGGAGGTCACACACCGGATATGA
parameter.measured: PBM binding z-score
result: 0.01

biopolymer.sequence: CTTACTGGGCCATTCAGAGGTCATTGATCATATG
parameter.measured: PBM binding z-score
result: 0.768
